I'd be grateful if you could share measured MIC for these entries.
test system: Escherichia coli; assay: Antibacterial activity against Escherichia coli PAZ505H8101 harboring AAC6'-1B by microdilution assay; assay type: functional
Kindly provide the numeric value in µg/mL only, without the unit symbol.

The value of MIC measured for the compound CCCCCCCCCCCO[C@@H]1[C@@H](O)[C@H](O[C@H]2O[C@H](CN)[C@@H](O)[C@H](OCCCCCCC)[C@H]2N)[C@@H](N)C[C@H]1N turned out to be 4

Data point: CCCCCCCCCCCO[C@@H]1[C@@H](N)[C@@H](O[C@H]2[C@H](O)[C@@H](OCCCCCCC)[C@H](N)C[C@@H]2N)O[C@H](CN)[C@H]1O ; MIC = 2

So, CCCCCCCO[C@@H]1[C@@H](N)[C@@H](O[C@H]2[C@H](O)[C@@H](OCCCCCCC)[C@H](N)C[C@@H]2N)O[C@H](CN)[C@H]1O ? Its MIC was 16

Lab note: NCC[C@H](O)C(=O)N[C@@H]1C[C@H](N)[C@@H](O[C@H]2O[C@H](CN)[C@@H](O)[C@H](O)[C@H]2O)[C@H](O)[C@H]1O[C@H]1O[C@H](CO)[C@@H](O)[C@H](N)[C@H]1O [AMIKACIN] gave MIC of 64

Form: compound = CCCCCCCCCCCO[C@@H]1[C@@H](N)[C@@H](O[C@H]2[C@H](O)[C@@H](O)[C@H](N)C[C@@H]2N)O[C@H](CN)[C@H]1O ; MIC = 32

Record summary for NC[C@H]1O[C@H](O[C@H]2[C@H](O)[C@@H](OCCCCc3ccc4ccccc4c3)[C@H](N)C[C@@H]2N)[C@H](N)[C@@H](OCCCCc2ccc3ccccc3c2)[C@@H]1O : reported MIC = 4

###

tested on: Acinetobacter lwoffii; experiment: Antibacterial activity against Acinetobacter lwoffii AI.88-483 harboring APH3'-6A by microdilution assay; type: functional
measurementLabel: MIC

// sample NCC[C@H](O)C(=O)N[C@@H]1C[C@H](N)[C@@H](O[C@H]2O[C@H](CN)[C@@H](O)[C@H](O)[C@H]2O)[C@H](O)[C@H]1O[C@H]1O[C@H](CO)[C@@H](O)[C@H](N)[C@H]1O , its MIC was 128 µg/mL

Short answer for CCCCCCCCO[C@@H]1[C@@H](N)[C@@H](O[C@H]2[C@H](O)[C@@H](OCCCCCCCC)[C@H](N)C[C@@H]2N)O[C@H](CN)[C@H]1O : MIC was 128 µg/mL

Consider CCCCCCCCCO[C@@H]1[C@@H](N)[C@@H](O[C@H]2[C@H](O)[C@@H](OCCCCCCCCC)[C@H](N)C[C@@H]2N)O[C@H](CN)[C@H]1O . Its measured MIC is 16 µg/mL

get_value(item= CCCCCCCCCCO[C@@H]1[C@@H](N)[C@@H](O[C@H]2[C@H](O)[C@@H](OCCCCCCCCCC)[C@H](N)C[C@@H]2N)O[C@H](CN)[C@H]1O , readout=MIC) returns 64 µg/mL

Kindly note the recorded MIC for NC[C@H]1O[C@H](O[C@H]2[C@H](O)[C@@H](OCCCc3ccc4ccccc4c3)[C@H](N)C[C@@H]2N)[C@H](N)[C@@H](OCCCc2ccc3ccccc3c2)[C@@H]1O , which is 32 to 64 µg/mL

# molecule CCCCCCCCCCCO[C@@H]1[C@@H](N)[C@@H](O[C@H]2[C@H](O)[C@@H](O)[C@H](N)C[C@@H]2N)O[C@H](CN)[C@H]1O ; its MIC = > 128 µg/mL
